Data provenance: ChEMBL document CHEMBL1139764

Please respond with reported Activity for every item in the list.
Test system: Escherichia coli
ASSAY_INFO: Inhibition of Escherichia coli D110 DNA gyrase after 30 mins by supercoiling assay

Ask: Need Activity, item COc1ccc(N2C(=O)c3c(C)c(OC)cc(O)c3C2CC(C)=O)cc1 (stereo not drawn)
Result: > 63 µg/mL

Ask: What about COc1ccc(N2C(=O)c3c(C)c(OC)cc(O)c3C2c2ccc(CS)o2)cc1 (stereo not drawn) ?
Result: > 63 µg/mL

Ask: What about COc1ccc(N2C(=O)c3c(C)c(OC)cc(O)c3C2c2[nH]c3ccccc3c2C)cc1 (stereo not drawn) ?
Result: > 63 µg/mL
